molecules and their reported ED50
Target: β1 -receptors of the heart (Canis lupus familiaris, UniProt P79148)
Construct: from tissue; host or cells: heart (left ventricle) of anaesthetised mongrel dogs, in vivo
Sequence (P79148 whole entry): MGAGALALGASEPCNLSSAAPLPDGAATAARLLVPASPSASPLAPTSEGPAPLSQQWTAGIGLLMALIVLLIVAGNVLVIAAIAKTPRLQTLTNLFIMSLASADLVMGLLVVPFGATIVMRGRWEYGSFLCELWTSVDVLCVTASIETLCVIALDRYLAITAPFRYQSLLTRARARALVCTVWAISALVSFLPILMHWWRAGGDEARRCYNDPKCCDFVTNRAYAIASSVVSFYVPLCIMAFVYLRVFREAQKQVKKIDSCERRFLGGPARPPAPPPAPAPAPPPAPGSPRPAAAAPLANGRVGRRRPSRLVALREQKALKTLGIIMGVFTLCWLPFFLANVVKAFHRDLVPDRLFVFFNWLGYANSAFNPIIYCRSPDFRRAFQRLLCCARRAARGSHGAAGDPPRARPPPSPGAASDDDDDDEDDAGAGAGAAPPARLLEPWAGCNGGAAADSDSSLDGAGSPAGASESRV
Assay: inhibition of isoproterenol effect on dp/dtmax of left ventricle (β1-receptors of the heart) in anaesthetised dogs
Format: in vivo, mongrel dogs
Conditions: dog; cumulative intravenous dose for 50% inhibition of effect of isoproterenol (0.5 gamma/kg i.v.) on dp/dtmax; chloralose/urethane/morphine anaesthesia; read-out: ED50 β1 mg/kg intravenously
MEASUREMENT_TYPE: ED50 (mg/kg)

                                   molecule  unit_name  endpoint_value
0  COc1ccc(OCC(O)CNCCNc2cc(=O)n(C)c(=O)n2C)cc1 (centres unmarked)      mg/kg          0.0157
1  CCCOc1ccc(OCC(O)CNCCNc2cc(=O)n(C)c(=O)n2C)cc1 (centres unmarked)      mg/kg          0.0061
2  CCCCOc1ccc(OCC(O)CNCCNc2cc(=O)n(C)c(=O)n2C)cc1 (centres unmarked)      mg/kg          0.0096
3  Cn1c(NCCNCC(O)COc2ccc(OCc3ccccc3)cc2)cc(=O)n(C)c1=O (centres unmarked)      mg/kg          0.0139
4  Cn1c(NCCNCC(O)COc2ccc(OCCO)cc2)cc(=O)n(C)c1=O (centres unmarked)      mg/kg          0.0291
